B1: TPR t1 (parent)
chain: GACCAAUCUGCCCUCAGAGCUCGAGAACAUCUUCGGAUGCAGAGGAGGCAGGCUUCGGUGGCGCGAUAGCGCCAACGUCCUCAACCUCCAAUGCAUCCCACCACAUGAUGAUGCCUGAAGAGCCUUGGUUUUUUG

- Variants of: B1
- measurement_description: polymerase ribozyme fitness, log enrichment relative to wild type (log ratio); higher = more active; in vitro selection for triplet polymerase activity
Measured polymerase ribozyme fitness (log ratio) determines class: category 1 (below -3), category 2 (-3 to below -0.8), category 3 (-0.8 or more)

Solved cases (3 shown):
INSERT INTO measurements (seq_string, class_label) VALUES
  ('GACCAAUCUGCCCUCAGAGCUCGAGAACAUCUUCGGAUGCAGAGGAGGAAGGCUUCGGUGGCGCGAUAGCACCAACCUCCUCAACCUCCAAUGCAUCCCACCACAUGAUGAUGCCUGAAGAGCCUUGGUUUUUUG [C49A G71A G77C]', 'category 2'),
  ('GACCAAUCUUCCCUCAGAGCUCGAGAACAUCUUCGGAUGCAGAGGAGGCAGGCUUCGGUGGCGCGAUAUCGCCAACGUCCUCAACCUCCAAUGCAUCCCACCACAUGAUGAUGCCUGAAGAGCCUUGGUUUUUUG [G10U G69U]', 'category 3'),
  ('GACCAAUCUGCCCUCAGAGCUCGAGAACAUCUUCGGAUGCAGAGGAGGCAGGAUUCCGUGGCGCGAUAGCGCCAACGACCUCAACCUCCAAUGCAUCCCACCACAUGAUGAAGCCUGAGGAGCCUUGGUUUUUUG [C53A G57C U78A U112A A119G]', 'category 3');

Problem: Record GACCAAUCUGCCCUCAGAGUUCGAGAACAUCUUCGGAUGCAGAGGAGGCAGGCUUCGGUGGCGCGAUAGCGCAAACGUCCACAACCUCCAAUGCAACCCACCACAUGAUGAUGCCUGAAGUGCUUUGGUUUUUAU [C20U C73A U81A U96A A121U C124U U134A G135U] — which class?
Solution: category 2

Problem: Bin? GACCAAUCUGCCCUCAGAGCUCGAGAACAUCUUCGGAUGCAGACGAGGCAGGCUUCGGUGGCGCGAUAGCCCCAACGUCCUCACCCUCCAAUGCAUCCCACCACAUGAUGAUGCCUGAAGAGCCUUGGUUUUUUG [G44C G71C A84C]
Solution: category 2

Problem: Which class does GACCAAUCUGCCCUCAGAGCUCGAGAACAUCUUCGGAUGCAGAGGAGGCAGGCUUCGGUGGCGCGAUAGCGCCAACGUCCUCAACCUCCAAUGCAUCCCAGCACAUGAUGAUGCCUGAAGAGUCUUGGUUUUUUG [C101G C123U] fall in?
Solution: category 3

Problem: Form field 'band' for GACCAGGCUGCCCUCAGCGCUCGAGAACAUCUUCGGAUGCAGAGGAGUCAGGAUUCGGUGGCACGAUAGCGCCAACGUCCUCAACCUCCAAUGCAUCCCACCACAUGAUGAUGCAUGAAGAGCCUUGGUUUUUUG [A6G U7G A18C G48U C53A G63A C115A]
Solution: category 2

Problem: Sort into band: GACCAAUCUGCCCUCACAGCUCGAGAACAUCUUGGGAUGCAGAGGAGGCAGGCUUCGGUGGCGCGAUAGCGCCAACGUCCUCAACCUCCAAUGCAUCCUACCACAUGAUUAUGCCUGAAGAGCCUUUGUUUUUUG [G17C C34G C99U G110U G127U]
Solution: category 1
